# TESTED_TARGET: PLK3 (Homo sapiens)
# Sequence (Q9H4B4 whole entry): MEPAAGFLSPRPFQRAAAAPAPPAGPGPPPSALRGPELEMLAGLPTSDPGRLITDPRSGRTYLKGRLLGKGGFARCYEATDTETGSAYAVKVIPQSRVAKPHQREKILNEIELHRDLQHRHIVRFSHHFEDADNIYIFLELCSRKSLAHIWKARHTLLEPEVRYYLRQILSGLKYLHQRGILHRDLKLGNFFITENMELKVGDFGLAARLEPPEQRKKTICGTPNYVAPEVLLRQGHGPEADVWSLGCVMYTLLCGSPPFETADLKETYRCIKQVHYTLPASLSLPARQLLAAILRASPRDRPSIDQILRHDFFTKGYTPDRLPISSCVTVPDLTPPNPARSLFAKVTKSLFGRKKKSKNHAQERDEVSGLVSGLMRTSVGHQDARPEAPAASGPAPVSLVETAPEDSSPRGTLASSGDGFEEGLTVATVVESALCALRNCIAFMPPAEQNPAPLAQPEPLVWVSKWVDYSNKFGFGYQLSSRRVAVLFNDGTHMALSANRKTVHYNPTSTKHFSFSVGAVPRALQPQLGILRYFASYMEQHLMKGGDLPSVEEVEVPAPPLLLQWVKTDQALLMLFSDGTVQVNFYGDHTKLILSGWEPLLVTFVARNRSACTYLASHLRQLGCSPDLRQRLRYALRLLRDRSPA
# ASSAY_NAME: PLK TR-FRET peptide assay, PLK3
# Type: biochemical
# RUN_PARAMETERS: GST-PLK3, 15 min reaction, read-out: Plk3 IC50
compounds and their reported IC50
PROPERTY_LABEL: IC50

• CC[C@@H]1C(=O)N(C)c2cnc(-n3ccnc3Cc3ccccc3)nc2N1C1CCCC1 = 10 to 50 µM
• CC[C@@H]1C(=O)N(C)c2cnc(-n3ccnc3-c3cccc(Cl)c3)nc2N1C1CCOC1 (stereo partly shown) = 1 to 10 µM
• CC[C@@H]1C(=O)N(C)c2cnc(-c3ccncc3NC(=O)CC(C)(C)C)nc2N1C(C)C = 10 to 50 µM
• CC[C@@H]1C(=O)N(C)c2cnc(-c3ccncc3CNC(=O)OC)nc2N1C1CCCC1 = 10 to 50 µM
• CC[C@@H]1C(=O)N(C)c2cnc(-n3ccnc3-c3cscn3)nc2N1C1CCCC1 = < 1 µM
• CN1C(=O)C2CC3CC3N2c2nc(-n3ccnc3-c3ccccc3)ncc21 (stereo not shown) = > 50 µM
• [2H]C([2H])([2H])N1C(=O)C(C([2H])([2H])C([2H])([2H])[2H])N(C([2H])(C([2H])([2H])[2H])C([2H])([2H])[2H])c2nc(-n3ccnc3-c3ccc(F)c(F)c3)ncc21 (stereo not shown) = 10 to 50 µM
• CC[C@@]12CCCCN1c1nc(-n3ccnc3-c3ccc(F)cc3F)ncc1N(C)C2=O = 10 to 50 µM
• CC[C@@H]1C(=O)N(C)c2cnc(-c3c[nH]nc3-c3ccc(C(F)(F)F)cc3)nc2N1C(C)C = 10 to 50 µM
• CC[C@@]12CCCN1c1nc(-c3nccnc3-c3ccccc3)ncc1N(C)C2=O = 1 to 10 µM
• CC[C@@H]1C(=O)N(C)c2cnc(-c3c[nH]nc3-c3ccccc3)nc2N1C(C)C = < 1 µM
• CC[C@@]12CCCN1c1nc(-n3ccnc3-c3cccc(Br)c3)ncc1N(C)C2=O = 10 to 50 µM
• [2H]C([2H])([2H])N1C(=O)C(C([2H])([2H])C([2H])([2H])[2H])N(C([2H])(C([2H])([2H])[2H])C([2H])([2H])[2H])c2nc(-n3ccnc3-c3ccc(F)cc3)ncc21 (racemic) = 1 to 10 µM
• CC[C@@]12CCCCN1c1nc(-n3ccnc3-c3cc(F)c(F)c(F)c3)ncc1N(C)C2=O = > 50 µM
• CC[C@@]12CCCN1c1nc(-n3ccnc3-c3nccc4ccccc34)ncc1N(C)C2=O = 10 to 50 µM
• CC[C@@H]1C(=O)N(C)c2cnc(-n3ccnc3)nc2N1C1CCOCC1 = 10 to 50 µM
• CCC1C(=O)N(C)c2cnc(-n3ccnc3-c3ccc(F)cc3)nc2N1c1cccc(-c2cncnc2)c1 (stereo not shown) = 1 to 10 µM
• CC[C@@H]1C(=O)N(C)c2cnc(-c3ccncc3NS(C)(=O)=O)nc2N1C1CCCC1 = > 50 µM
• CC[C@@]12CCCCN1c1nc(-n3ccnc3)ncc1N(C)C2=O = > 50 µM
• CC[C@@H]1C(=O)N(C)c2cnc(N3CCN(c4cnccn4)CC3)nc2N1C1CCCC1 = > 50 µM
• CC[C@@H]1C(=O)N(C)c2cnc(-c3ccncc3-c3ccccc3)nc2N1C1CCCC1 = < 1 µM
• CC[C@@H]1C(=O)N(C)c2cnc(-n3ccnc3-c3ccc(C(F)(F)F)cc3)nc2N1C1CCC1 = > 50 µM
• CC[C@@H]1C(=O)N(C)c2cnc(-c3ccncc3-c3ccccc3)nc2N1C1CC1 = 10 to 50 µM
• CC[C@@H]1C(=O)N(C)c2cnc(-n3ccnc3-c3ccc(F)cc3F)nc2N1C1CC(F)(F)C1 = 10 to 50 µM
• CCC12CCCCN1c1nc(-n3ccnc3-c3ccc(F)cc3F)ncc1N(C)C2=O (racemic) = 10 to 50 µM
• CC[C@@H]1C(=O)N(C)c2cnc(-c3cn[nH]c3)nc2N1C(C)C = > 50 µM
• CC[C@@H]1C(=O)N(C)c2cnc(-n3ccnc3-c3cccc(F)c3F)nc2N1CCC(F)(F)F = 1 to 10 µM
• CC[C@@H]1C(=O)N(C)c2cnc(-n3ccnc3-c3cccc(Cl)c3)nc2N1C(C)C = 1 to 10 µM
• CC[C@]12CCCCN1c1nc(-n3ccnc3-c3cc(F)cc(F)c3)ncc1N(C)C2=O = > 50 µM
• CC[C@@]12CCCN1c1nc(-n3ccnc3-c3cc(F)cc(F)c3)ncc1N(C)C2=O = 10 to 50 µM
• CC[C@@H]1C(=O)N(C)c2cnc(-c3ccncc3CNC(=O)OC)nc2N1C(C)C = 10 to 50 µM
